Values compiled from PubChem BioAssay AID652064.

# Test system: human cells, XBP1 mRNA qRT-PCR
# experimental_details: compound effect on XBP1 transcript levels – cell-based, quantitative RT-PCR, medium throughput (AID 652064)
Calls of active or inactive are those of the source. No rule for the calls is given here.
metric: IC50

1. Cc1ccc(NC(=O)c2cc3ccccc3oc2=O)cc1S(=O)(=O)N(C)C    > 20 µM (inactive)
2. C=CCn1c(C)cc(C2=NN=C(NCC)SC2)c1C    6.85 µM (inactive)
3. CCOc1ccc(-c2nc(CSCC(=O)NCc3ccco3)c(C)o2)cc1    7.45 µM (inactive)
4. Cc1nn(C(C)(C)C)c(C)c1/C=N/OC(=O)Nc1ccc(Cl)cc1    20.1 µM (inactive)
5. CC(C)(C)c1ccc(C(=O)Nc2ccc(CC(=O)O)cc2)o1    > 20 µM (inactive)
6. Cc1ccc(NC(=O)O/N=C/c2c(C)nn(C(C)(C)C)c2C)cc1Cl    10.1 µM (inactive)
7. Cc1cc(C(=O)COC(=O)c2ccccc2O)c(C)n1Cc1cccs1    8.67 µM (inactive)
8. CC(C)(C)c1ccc(-c2noc(CCC(N)=O)n2)cc1    > 20 µM (inactive)
9. Cc1cc(C2=NNC(=NC3CC3)SC2)c(C)n1-c1ccccc1F    6.31 µM (inactive)
10. Cc1cc(C2=NNC(=NC3CC3)SC2)c(C)n1-c1ccccc1    4.78 µM (inactive)
11. CCN=C1NN=C(c2cc(C)n(Cc3ccco3)c2C)CS1    10.2 µM (inactive)
